test: Cell cytotoxicity determination (MTT assay); type: cell-based, murine; conditions: mouse, RAW 264.7 macrophage cells, RAW 264.7 cells, read-out: Cytotoxicity IC50 (µM) ± S.E.M
measured metric: IC50

Some solved entries appear below for comparison.
                              smiles_string  measured_metric       val
0  COc1ccc(C(=O)/C=C(O)/C=C/c2cc(OC)c(OC)c(OC)c2)c(O)c1             IC50  > 100 µM
1  O=C(/C=C(O)/C=C/c1cccc(O)c1)c1cc(Cl)ccc1O             IC50   53.1 µM
2  O=C(/C=C(O)/C=C/c1ccccc1Cl)c1cc(Cl)ccc1O             IC50  > 100 µM
3  O=C(/C=C(O)/C=C/c1cccc(O)c1)c1ccc(O)cc1O             IC50   70.1 µM
4  COc1cc(/C=C/C(O)=C/C(=O)c2cc(Cl)ccc2O)cc(OC)c1OC             IC50  > 100 µM
5      O=C(/C=C(O)/C=C/c1ccco1)c1cc(O)ccc1O             IC50  > 100 µM

compound O=C(/C=C(O)/C=C/c1ccccc1O)c1cc(O)ccc1O , IC50 observed: 67.3 µM

compound Cc1ccc(/C=C/C(O)=C/C(=O)c2cc(Cl)ccc2O)s1 , IC50 observed: > 100 µM

compound O=C(/C=C(O)/C=C/c1cccs1)c1ccccc1O , IC50 observed: > 100 µM

compound O=C(/C=C(O)/C=C/c1cccc(Cl)c1)c1ccccc1O , IC50 observed: > 100 µM

compound COc1ccc(C(=O)/C=C(O)/C=C/c2ccccc2Cl)c(O)c1 , IC50 observed: > 100 µM
